All values here come from patent US6943194B1.

- Tested on: tubulin
- Measurement description: Inhibition of [3H]colchicine binding to tubulin
- Design: species or system bovine
- Stated conditions: 1.0 μM tubulin, 5.0 μM [3H]colchicine, 5.0 μM inhibitor, 10 min at 37° C.
Measured attribute: Inhibition of colchicine binding % inhibition (%)
Your answer is read as %, so omit the unit and give the number.

Exercise: Find the recorded Inhibition of colchicine binding % inhibition belonging to "COc1ccc(C(=O)c2cc(OC)c(OC)c(OC)c2)cc1OC" and report it.
Solution: 1

Exercise: Find the recorded Inhibition of colchicine binding % inhibition belonging to COc1ccc(Cc2cc(OC)c(OC)c(OC)c2)cc1 [Compound 7b, reference compound] and report it.
Solution: 56

Exercise: Find the recorded Inhibition of colchicine binding % inhibition belonging to "COc1cc(OC)cc(C(=O)c2cc(OC)c(OC)c(OC)c2)c1" and report it.
Solution: 58

Exercise: Find the recorded Inhibition of colchicine binding % inhibition belonging to "COc1cc(C(=O)c2cc(C)cc(C)c2)cc(OC)c1OC" and report it.
Solution: 7

Exercise: Find the recorded Inhibition of colchicine binding % inhibition belonging to COc1ccc(C(=O)c2cc(OC)c(OC)c(OC)c2)cc1OC(C)=O [Compound 3e, Phenstatin Acetate] and report it.
Solution: 71

Exercise: Find the recorded Inhibition of colchicine binding % inhibition belonging to COc1ccc(Cc2cc(OC)c(OC)c(OC)c2)cc1O [Compound 7a, reference compound] and report it.
Solution: 65

Exercise: Find the recorded Inhibition of colchicine binding % inhibition belonging to "COc1cc(C(=O)c2ccc3c(c2)OCO3)cc(OC)c1OC" and report it.
Solution: 0

Exercise: Find the recorded Inhibition of colchicine binding % inhibition belonging to COc1ccc(/C=C\c2cc(OC)c(OC)c(OC)c2)cc1OP(=O)([O-])[O-].[Na+].[Na+] [Compound 1d, combretastatin A4 sodium phosphate, reference compound] and report it.
Solution: 4

Exercise: Find the recorded Inhibition of colchicine binding % inhibition belonging to COc1ccc(/C=C\c2cc(OC)c(OC)c(OC)c2)cc1O [Compound 1b, combretastatin A-4, reference compound] and report it.
Solution: 97

Exercise: Find the recorded Inhibition of colchicine binding % inhibition belonging to COc1ccc(C(=O)c2cc(OC)c(OC)c(OC)c2)cc1OP(=O)([O-])[O-].[Na+].[Na+] [Compound 3d, Disodium Phenstatin 3-O-phosphate] and report it.
Solution: 37

Exercise: Find the recorded Inhibition of colchicine binding % inhibition belonging to COc1ccc(CCc2cc(OC)c(OC)c(OC)c2)cc1 [Compound 8b, reference compound] and report it.
Solution: 54

Exercise: Find the recorded Inhibition of colchicine binding % inhibition belonging to COc1ccc(C=Cc2cc(OC)c(OC)c(OC)c2)cc1 [Compound 1e, reference compound] and report it.
Solution: 97

Exercise: Find the recorded Inhibition of colchicine binding % inhibition belonging to "COc1cc(C(=O)c2cc(F)cc(F)c2)cc(OC)c1OC" and report it.
Solution: 0

Exercise: Find the recorded Inhibition of colchicine binding % inhibition belonging to COc1ccc(CCc2cc(OC)c(OC)c(OC)c2)cc1O [Compound 8a, reference compound] and report it.
Solution: 77
